Source: PubChem BioAssay (NCI)

System: SF-539 CNS
assayOverview: NCI tumour cell line growth inhibition, 48 h; in the data active = GI50 below about 0.43 µM; inactive = the rest
Use one of these outcomes when replying: True (active), False (inactive)

A selection of reference data follows.
compound="CC12OC(C(=O)C13CCC3)C1C(=O)c3c(O)ccc(O)c3C(=O)C12 (stereo not drawn)" class=False
compound=C=CC(=O)N1CCC(CNc2ncnc(N)c2-c2ccc(Oc3ccccc3)cc2)CC1 class=False

(Q) Please state the recorded outcome for this compound: "O=C1c2ccccc2-c2c1c1ccc3ccccc3c1n2-c1ccccc1"
(A) False

(Q) Please state the recorded outcome for this compound: Cc1nc2sc(C(=O)Nc3cccc(Cl)c3C)c(N)c2cc1C(O)c1ccccc1 (stereo not drawn)
(A) True

(Q) Please state the recorded outcome for this compound: "N#Cc1cc2c(=S)[nH]c(=S)[nH]c2nc1SCc1ccccc1"
(A) False

(Q) Please state the recorded outcome for this compound: "CCCCc1n(Cc2ccc3ccccc3n2)cc[n+]1Cc1ccc2ccccc2c1"
(A) False

(Q) Please state the recorded outcome for this compound: "COC(=O)C[C@@H]1CC=CC(=O)/C1=C(O)/C=C/c1ccccc1"
(A) False

(Q) Please state the recorded outcome for this compound: "Fc1cccc(-c2nc(-c3c[nH]c4ncccc34)cs2)c1"
(A) False

(Q) Please state the recorded outcome for this compound: "C=CC(=O)OCCCS(=O)(=O)[O-].C=CC(=O)OCCCS(=O)(=O)[O-].NC1CCCCC1N.[Pt+4]"
(A) False

----------
Tested on: SK-OV-3 ovarian
assayOverview: NCI tumour cell line growth inhibition, 48 h
reportedProperty: TGI

// below: answered compounds
compound=O=c1oc2ccccc2c(O)c1Cc1ccccc1Cc1c(O)c2ccccc2oc1=O reportedproperty=TGI reportedresult="> 100 µM"
compound="CC(C)C1COC(C(C)(C)C2=N[C@@H](C(C)C)CO2)=N1 (some centres undefined)" reportedproperty=TGI reportedresult="> 100 µM"
compound=Cc1[nH]c2[nH]c(=S)nc(NC(N)=S)c2c1Cc1ccccc1 reportedproperty=TGI reportedresult="> 100 µM"

Let us move to another entry and its TGI.
The recorded TGI for entry "CC(=O)OCCC/C(=C/c1cc2ccccc2c2ccccc12)[N+](=O)[O-]" equals 7.38 µM

----------
Task for the reader: assign each of the following compounds its reported TGI.
Test system: HCC-2998 colon
assayOverview: NCI tumour cell line growth inhibition, 48 h

compound=Cc1cc(=O)[nH]c(S(=O)(=O)NC(=O)Nc2cccc(Cl)c2)n1 systemname="HCC-2998 colon" reportedresult="> 100 µM"

Answer for every listed entry: what is its TGI? The entries follow.
1. OCCCN=C1N=C(Cl)/C(=C\c2ccccc2)N1
2. CC(C)(C)COS(=O)OCC(C)(C)C

(A)
> 100 µM
> 100 µM

----------
Task for the reader: assign each of the following compounds its reported TGI.
Tested on: COLO 205 colon
assayOverview: NCI tumour cell line growth inhibition, 48 h

// below: answered compounds
compound=O=C(CC(=O)c1cccc2ccccc12)C(=O)Nc1nccs1 reportedproperty=TGI reportedresult="> 100 µM"
compound=C[C@@H]1C[C@@H]2C(=O)N(c3ccccc3)C(=O)[C@@H]2c2[nH]c3ccc(Br)cc3c21 reportedproperty=TGI reportedresult="> 100 µM"

The recorded TGI for entry "COc1c(OC)c(OC)c2c(=O)c(OC)c(-c3ccc4c(c3)OCO4)oc2c1OC" equals > 100 µM
